# Target entity: SpHof1-2
# Test: SPOT peptide array binding signal intensity (averaged, normalized) (arbitrary units (background-subtracted, floor 0; scale differs between SH3 domains)); higher = stronger binding of the SH3 domain to the peptide
In this scheme, each record receives a class according to its SPOT peptide array binding signal intensity; the ranges are b0: < 7; b1: ≥ 7 and < 40; b2: ≥ 40

input: The entry to classify is `KDKKTKPTPPPKPSH` ; which class holds it?
output: b0
